assay: The drug is tested on WLS-220 corresponding to human gut metagenome with ENA study accession number: PRJEB37062 and ENA sample accession number: ERS12561769 for biotransformation under anaerobic condition. The drug concentrations were measured over 9 timepoints collected between 0 and 24 hours of incubation by liquid-chromatography-coupled mass spectrometry (LC–MS); details: 2 µM; note: call rule not given here
Measurement Name: Bacterial Biotransformation

Known Bacterial Biotransformation results, listed for orientation:
{"columns": ["Compound", "Measurement Name", "Result"],
 "data": [
  ["COc1ccccc1N1CCN(CC(O)COc2cccc3ccccc23)CC1 (stereo unspecified)", "Bacterial Biotransformation", "Compound NOT metabolized"],
  ["CC[C@@H](CO)NC(=O)[C@@H]1C=C2c3cccc4c3c(cn4C)C[C@H]2N(C)C1.O=C(O)/C=C\\C(=O)O [METHYSERGIDE MALEATE]", "Bacterial Biotransformation", "Compound NOT metabolized"],
  ["CCCc1nc(C(C)(C)O)c(C(=O)OCc2oc(=O)oc2C)n1Cc1ccc(-c2ccccc2-c2nnn[nH]2)cc1", "Bacterial Biotransformation", "Compound metabolized"],
  ["COc1ccccc1OCC(O)COC(N)=O (stereo unspecified)", "Bacterial Biotransformation", "Compound NOT metabolized"],
  ["CCN(CC)C(=O)/C(C#N)=C/c1cc(O)c(O)c([N+](=O)[O-])c1", "Bacterial Biotransformation", "Compound NOT metabolized"]
]}

Query Cc1cn([C@H]2C[C@H](N=[N+]=[N-])[C@@H](CO)O2)c(=O)[nH]c1=O yields Bacterial Biotransformation of Compound NOT metabolized

Query CC(C)NCC(O)COc1ccc(CCOCC2CC2)cc1 (stereo unspecified) yields Bacterial Biotransformation of Compound NOT metabolized

Query CC(C)(C)NC[C@H](O)COc1ccccc1C1CCCC1.CC(C)(C)NC[C@H](O)COc1ccccc1C1CCCC1.O=S(=O)(O)O [PENBUTOLOL SULFATE] yields Bacterial Biotransformation of Compound metabolized

---

test: The drug is tested on Z-026 corresponding to metagenome with ENA study accession number: PRJEB37062 and ENA sample accession number: ERS12561825 for biotransformation under anaerobic condition. The drug concentrations were measured over 9 timepoints collected between 0 and 24 hours of incubation by liquid-chromatography-coupled mass spectrometry (LC–MS); details: 2 µM
Measurement Name: Bacterial Biotransformation

Known Bacterial Biotransformation results, listed for orientation:
{"columns": ["Compound", "Result"],
 "data": [
  ["CC(CN(C)C)CN1c2ccccc2CCc2ccccc21.O=C(O)/C=C\\C(=O)O (centres undefined) [TRIMIPRAMINE MALEATE]", "Compound metabolized"],
  ["CN1C(C(=O)Nc2ccccn2)=C(O)c2sccc2S1(=O)=O [TENOXICAM]", "Compound NOT metabolized"],
  ["CCN(CC)CCOC(=O)C(Cc1cccc2ccccc12)CC1CCCO1.O=C(O)C(=O)O (centres undefined) [NAFRONYL OXALATE]", "Compound NOT metabolized"],
  ["O=C1[C@H](CC[C@H](O)c2ccc(F)cc2)[C@@H](c2ccc(O)cc2)N1c1ccc(F)cc1 [EZETIMIBE]", "Compound NOT metabolized"],
  ["CC(O)(CS(=O)(=O)c1ccc(F)cc1)C(=O)Nc1ccc(C#N)c(C(F)(F)F)c1 (centres undefined) [BICALUTAMIDE]", "Compound NOT metabolized"],
  ["OCCOCCN1CCN(C2=Nc3ccccc3Sc3ccccc32)CC1 [QUETIAPINE]", "Compound NOT metabolized"],
  ["COc1ccccc1OCC(O)CN1CCN(CC(=O)Nc2c(C)cccc2C)CC1 (centres undefined) [RANOLAZINE]", "Compound NOT metabolized"],
  ["Cc1ccc(-c2cc(C(F)(F)F)nn2-c2ccc(S(N)(=O)=O)cc2)cc1 [CELECOXIB]", "Compound NOT metabolized"],
  ["CCC(=O)NCC[C@@H]1CCc2ccc3c(c21)CCO3 [RAMELTEON]", "Compound NOT metabolized"],
  ["CC(=O)OCC(=O)[C@@]12N=C(C)O[C@@H]1C[C@H]1[C@@H]3CCC4=CC(=O)C=C[C@]4(C)[C@H]3[C@@H](O)C[C@@]12C [DEFLAZACORT]", "Compound metabolized"]
]}

Query CC(C)OC(=O)C(C)(C)Oc1ccc(C(=O)c2ccc(Cl)cc2)cc1 [FENOFIBRATE] yields Bacterial Biotransformation of Compound metabolized

Query O=C(Nc1ccccc1)OCC(CN1CCCCC1)OC(=O)Nc1ccccc1 (centres undefined) [DIPERODON] yields Bacterial Biotransformation of Compound NOT metabolized

Query COC1=CC(=O)C[C@@H](C)[C@]12Oc1c(Cl)c(OC)cc(OC)c1C2=O [GRISEOFULVIN] yields Bacterial Biotransformation of Compound metabolized

Query COc1ccc2c3c1O[C@H]1C[C@@H](O)C=C[C@@]31CCN(C)C2 [GALANTAMINE] yields Bacterial Biotransformation of Compound NOT metabolized

---

test: The drug is tested on WLS-082 corresponding to human gut metagenome with ENA study accession number: PRJEB37062 and ENA sample accession number: ERS12561751 for biotransformation under anaerobic condition. The drug concentrations were measured over 9 timepoints collected between 0 and 24 hours of incubation by liquid-chromatography-coupled mass spectrometry (LC–MS); conditions: 2 µM
Measurement Name: Bacterial Biotransformation

{"columns": ["Compound", "Bacterial Biotransformation"],
 "data": [
  ["O=C(O)CCc1nc(-c2ccccc2)c(-c2ccccc2)o1", "Compound metabolized"],
  ["NC(CO)(CO)CO.O=C(c1ccccc1)c1ccc2n1CCC2C(=O)O (centres undefined)", "Compound metabolized"],
  ["CCN(CC)CCOC(=O)C(Cc1cccc2ccccc12)CC1CCCO1.O=C(O)C(=O)O (centres undefined) [NAFRONYL OXALATE]", "Compound metabolized"],
  ["CCc1nn(CCCN2CCN(c3cccc(Cl)c3)CC2)c(=O)n1CCOc1ccccc1", "Compound metabolized"],
  ["CN1C(C(=O)Nc2ccccn2)=C(O)c2sccc2S1(=O)=O", "Compound NOT metabolized"],
  ["CC(C)(Oc1ccc(CCNC(=O)c2ccc(Cl)cc2)cc1)C(=O)O [BEZAFIBRATE]", "Compound metabolized"],
  ["CN(C)CC(c1ccc(O)cc1)C1(O)CCCCC1.O=C(O)CCC(=O)O (centres undefined) [DESVENLAFAXINE SUCCINATE]", "Compound NOT metabolized"],
  ["Cc1ccc(-c2nc3ccc(C)cn3c2CC(=O)N(C)C)cc1", "Compound NOT metabolized"]
]}

Query C[C@@H]1CC[C@H]2[C@@H](C)C(=O)O[C@@H]3O[C@@]4(C)CC[C@@H]1[C@]32OO4 yields Bacterial Biotransformation of Compound metabolized

---

details: human gut metagenome, 24 h, 2 µM
Where a SMILES comes first, the peptide text is derived from it. [ ]: non-standard residue; d: D form. pGlu = O=C1CC[C@@H](C(=O)O)N1; Thz = O=C(O)[C@@H]1CSCN1
Measurement Name: Bacterial Biotransformation

Known Bacterial Biotransformation results, listed for orientation:
{"columns": ["Molecule", "Bacterial Biotransformation"],
 "data": [
  ["O=C1[C@H](CC[C@H](O)c2ccc(F)cc2)[C@@H](c2ccc(O)cc2)N1c1ccc(F)cc1", "Compound NOT metabolized"],
  ["CCCc1nn(C)c2c(=O)[nH]c(-c3cc(S(=O)(=O)N4CCN(C)CC4)ccc3OCC)nc12.O=C(O)CC(O)(CC(=O)O)C(=O)O [SILDENAFIL CITRATE]", "Compound NOT metabolized"],
  ["COc1ccc(CCN(C)CCCC(C#N)(c2ccc(OC)c(OC)c2)C(C)C)cc1OC (stereo not given)", "Compound metabolized"],
  ["C[C@@H]1C[C@H]2[C@@H]3CCC4=CC(=O)C=C[C@]4(C)[C@@]3(F)[C@@H](O)C[C@]2(C)[C@@]1(O)C(=O)CO", "Compound NOT metabolized"],
  ["Clc1ccc(Cn2c(CN3CCCC3)nc3ccccc32)cc1", "Compound metabolized"],
  ["O=C1CC[C@@H](C(=O)N2CSC[C@H]2C(=O)O)N1 [PIDOTIMOD] ([pGlu]-[Thz]-OH)", "Compound NOT metabolized"]
]}

Query CC[C@@H](CO)NC(=O)[C@@H]1C=C2c3cccc4c3c(cn4C)C[C@H]2N(C)C1.O=C(O)/C=C\C(=O)O [METHYSERGIDE MALEATE] yields Bacterial Biotransformation of Compound NOT metabolized

Query CC(C)OC(=O)C(C)(C)Oc1ccc(C(=O)c2ccc(Cl)cc2)cc1 [FENOFIBRATE] yields Bacterial Biotransformation of Compound metabolized

Query OCCOCCN1CCN(C2=Nc3ccccc3Sc3ccccc32)CC1 yields Bacterial Biotransformation of Compound metabolized

Query Cc1nc(-c2ccc(OCC(C)C)c(C#N)c2)sc1C(=O)O yields Bacterial Biotransformation of Compound metabolized

Query CN1CCOC(c2ccccc2)c2ccccc2C1 (stereo not given) yields Bacterial Biotransformation of Compound metabolized
